# Tested on: NCI-H460 lung
The categories you may choose from are active, inactive

Please indicate how the test categorized CCSc1ccc2c(c1)N(CCCN1CCN(C)CC1)c1ccccc1S2 . inactive

For this compound, state the assay outcome: CCOC(=O)c1ccc(NC(=O)Nc2nccs2)cc1 active

Short answer needed: outcome of this test for O=[N+]([O-])c1cc([N+](=O)[O-])c(N2CCCC2)cc1NN=C(c1ccc(O)cc1)c1ccc(O)cc1 ? inactive

Answer briefly: the call reported for O=C(Nc1cccc(-n2cc(-c3ccncc3)c(-c3ccc(Cl)c(O)c3)n2)c1)Nc1cccc(C(F)(F)F)c1 in this assay. inactive

Recorded call for Cc1ccc(NS(=O)(=O)c2ccc(-c3cnc(C4CC4)o3)cc2)cc1C ? inactive

Identify the outcome logged in this assay for the compound shown: CC[C@@]1(O)C(=O)OCc2c1cc1n(c2=O)Cc2cc3c([N+](=O)[O-])c(OC)ccc3nc2-1 active

I'd appreciate the recorded outcome for CC1=C(C(=O)Nc2ccc(Cl)c(Cl)c2)C(c2ccccc2Cl)NC(=S)N1 (stereo not given) from this test. inactive

How did this test come out for CCCCCCCCCCCCCCCCNC(=O)OC(C)C ? inactive

Called result for COC(=O)c1c2c(c(C)[n+]([O-])c1C)C(=O)C(NCc1cccc(Cl)c1)=CC2=O inactive

Kindly provide the recorded test outcome for the following compound: CC(C)(Oc1ccc(Cl)cc1)C(=O)NC1C2CC3CC1CC(NS(C)(=O)=O)(C3)C2 (stereo not given) inactive
